# Tested on: SK-MEL-5 melanoma
# protocol: NCI tumour cell line growth inhibition, 48 h
measured property: TGI

molecule	value
COc1cc2c(cc1OC)[C@@H]1[C@H](C#N)C(=O)C(C)(C)N1CC2	> 100 µM

Your task in this section: give TGI for each listed record.
1. O=C1c2ccccc2C(=O)c2sc(Nc3cccc(Cl)c3)nc21
2. CC(=O)c1cccc(Nc2nc3ccccc3c3occc23)c1

2.99 µM
48.6 µM

Hi, could you look up TGI for each item in my list?
1. CCOC(=O)C1=C(C)CC2C(=O)OC(=O)C2C1(C)C (configuration not stated)
2. Oc1ccc(Cl)cc1-c1cc(-c2ccccc2Cl)[nH]n1
3. CC1(C)CCc2ccc(OCCC(=O)O)cc2O1
4. CC1OC(OC2C(O[C@H]3CC[C@@H]4C(=CC[C@@H]5[C@@]4(C)C(=O)C[C@]4(C)[C@@H]([C@H](C)CC[C@@H](O)C(C)(C)O)CC[C@@]54C)C3(C)C)OC(CO)C(O)C2O)C(O)C(O)C1O (some centres not stated)
5. O=C1NC(N/N=C/C(O)C(O)C(O)C(O)CO)=N/C1=C\c1ccco1 (configuration not stated)
6. COc1ccc(C2=CSc3cc(Cl)c(C)cc3S(=O)(=O)N2C(C)=O)cc1
7. CSc1ccccc1C#C/C=C\C#Cc1ccccc1N1CCCC1=O

> 100 µM
> 100 µM
> 100 µM
> 100 µM
> 100 µM
48.5 µM
> 18.3 µM

Provide the reported TGI of each entry below, same order.
1. NC(=O)C(=CNC(N)=S)C(N)=O
2. NC(N)=Nc1ccc(-c2ccc(N=C(N)N)cc2)cc1

1. > 100 µM
2. 54.1 µM

---

# Test system: HL-60(TB) leukemia
# protocol: NCI tumour cell line growth inhibition, 48 h
measured property: TGI (µM)
Numbers only, in µM.

Examples with their reported TGI follow.
In [3]: df
Out[3]:
                                   molecule  measured_property  value
0  COc1cc2nc(C)nc(N[C@H](C)c3cc(N)cc(C(F)(F)F)c3)c2cc1O[C@H]1CCOC1                TGI   39.2
1  CC1=C(C(=O)Nc2ccc(F)c(Cl)c2)C(c2ccc(Cl)cc2)NC(=O)N1 (centres undefined)                TGI   1.87
2            O=C(Nc1ccc(F)cc1F)c1cc(I)ccc1O                TGI   9.13

# evaluate next
The reported value for CC(=O)OC(C)C(=O)C1c2cccc(O)c2C(=O)c2c(O)cc(C)cc21 (centres undefined) in terms of TGI is 0.847

---

# System: TK-10 renal
# protocol: NCI tumour cell line growth inhibition, 48 h
Give measured TGI for each item. Keep answers brief.

A selection of reference data follows.
>>> print(df.to_string())
                    structure_smiles_string  assayed_system     value
0  O=C(OCc1ccccc1)N(CCCCN(CCCNC(=O)C(F)(F)F)C(=O)OCc1ccccc1)CCCNC(=O)C(F)(F)F     TK-10 renal  > 100 µM
1  O=C(NC(=S)Nc1ccc(Br)cc1)c1ccc2c(c1)Sc1ccccc1S2     TK-10 renal   30.9 µM
2  C=C(C)[C@@H]1CCC2=C[C@@H](OC2=O)[C@@H](C(=C)C)C2=CC(C(=O)O)=C(C1)O2     TK-10 renal  > 100 µM
3  CC1=C(C(=O)Nc2ccccc2C)C(c2ccco2)C(C(=O)Nc2ccccc2C)=C(C)N1C     TK-10 renal  > 100 µM

Below: the item to evaluate.
CO[C@]1(c2ccc([N+](=O)[O-])cc2)Oc2ccccc2C(=O)[C@@]1(Nc1ccc(C=O)cc1)OC has a reported TGI of > 10 µM
